The reported numbers originate from the DeepSol protein solubility set.

# experimental.details: soluble on expression in E. coli; label from the status in PepcDB or PDB records
observed.property: soluble on expression in E. coli

- SGLVPGRHMMITMDDIIREGNPTLREVAKEVSLPLSEEDISLGKEMLEFLKNSQDPIKAEELHLRGGVGLAAPQLDISKRIIAVHVPSPDPEADGPSLSTVMYNPKILSHSVQDACLGEGEGCLSVDREVPGYVVRHAKITVSYYDMNGEKHKIRLKNYESIVVQHEIDHINGVMFYDHINDQNPFALKEGVLVIE: soluble
- MGSDKIHHHHHHGIDNGTPKSKNEIGVNTIVKKSSRAAVTSNSSFTSFKLHAYIVKSNDIATSGWGNAYMDGIEYKGGQGSWATTSGTFYWPITEMQFFGYTNDVTYTAPASSNAYPTISYTLPDTPADQKDIIVAYSKDVTKPSDNTLNLTFQHILTRINFAVKLVDSSYTYTVESITITGAKGGTATYTFGGTEGKGGNWNITGSAPASGYSYTFDNTVTAKDGIYDYTQNDNSLMLYPQSLTDAKIIVKYKTEKDNATFFNDSKEVSLTGEWTNGQSIRYILTLPVGAEEMSVNTTYDENWDATDNEQTPKNPAS: not soluble
- MSLNCTLDELRQRIEAHRPRQLDTDQRFPQAAVLVPITRSDDPELVLTLRAAGLSTHGGEVAFPGGRRDPEDADLVRTALREAEEEIALPPGLVEVVGPLSTLVSRHGIEVTPYVAFIPDFVEYQPNDGEIAAVFNVPLSFFRDDPREVTHRIDYFGRSWYVPSYRFGEFKIWGLTAIMVVELVNLLYDDPIDLHTPPASFIKLSEGGSHHHHHH: soluble
- MTAAATTTVSTAAAMQTAALASLYSQAAVAIINNKGDVGKALKDLGTSDTVKQIVTSALTAGALNQMGADIAQLNSKVRTELFSSTGNQTIANLGGRLATNLSNAGISAGINTAVNGGSLKDNLGNAALGALVNSFQGEAASKIKTTFSDDYVAKQFAHALAGCVSGLVQGKCKDGAIGAAVGEIVAESILGGRNPATLSDAEKHKVISYSKIIAGSVAALNGGDLEHHHHHH: not soluble
- MGSDKIHHHHHHMSSADLLAPYRGPLTVEQVATGMNAATANARRLAQDARLLLANKRWPTAASLAALSIEESGKVVILRRFVTANTDDIKRLWKEYRTHTKKNINWILPELVAKGARRLEDFKPIVDSASDHPDILDAMKQIGFYTDCLGKTNWSRPTEVVDETLAKNLVNAAEVLSPDRNISVRELELWAEHMGPVWNKNLDWMKQALVNWYGAMQAEGLMPAGSNKMQAFVKEGLATDQAKQIGREV: not soluble
- MSLDNHNPKKSTTPNNEFHKKIATTGKIINLPKQSIVPAVSISVYNDMKTIVLTPMEFQLSSIGFQFQNLIIDLPHSTISTNCITFYYHQDHILIDLIDQNYLFITLKIAIDRFILGGQQLTLDNFEEWGYISVPYSFELRSSPFLLKCLDNLNLIVSLKDGGLLHFKRDEELGEINVFNFQEQGTLIPFLGFFGSGKQKDVVLDGVSSNSIVDALQIGGSGVVITLSVNKVLKLWNLDGHQNLSSLTIASDDNTWLPTIPSKYLKSYDQEDGKTIITLFINTKSGDSSKSMFVFKSFELESSNEGHHHHHH: not soluble
